Kindly state %-inhibition, CaMK2α for each of the entries shown.
- target: panel of more than 300 wild-type and mutant kinases (313 kinase panel) (Homo sapiens, UniProt Q9UQM7)
- Sequence (Q9UQM7 whole entry, change not shown): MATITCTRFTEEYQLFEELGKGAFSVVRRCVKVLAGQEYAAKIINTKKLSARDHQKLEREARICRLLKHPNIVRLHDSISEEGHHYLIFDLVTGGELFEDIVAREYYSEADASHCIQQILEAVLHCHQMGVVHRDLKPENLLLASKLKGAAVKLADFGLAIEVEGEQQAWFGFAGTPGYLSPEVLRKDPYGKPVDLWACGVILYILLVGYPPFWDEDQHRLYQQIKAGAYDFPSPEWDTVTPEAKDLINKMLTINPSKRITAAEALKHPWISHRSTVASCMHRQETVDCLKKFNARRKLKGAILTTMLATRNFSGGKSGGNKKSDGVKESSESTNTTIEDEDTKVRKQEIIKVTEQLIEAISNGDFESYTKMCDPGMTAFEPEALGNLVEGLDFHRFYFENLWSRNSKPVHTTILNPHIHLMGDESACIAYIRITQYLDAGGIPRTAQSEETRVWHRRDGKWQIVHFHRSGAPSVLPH
- assayRemarks: Kinase profiling in a biochemical assay panel (mobility shift assays and ELISA), %-inhibition at 1 μM; selectivity entropy
- conditionNotes: kinase CaMK2α; 1 μM compound
Numbers only, in %.

CO[C@H]1C[C@@H]2CC[C@@H](C)[C@@](O)(O2)C(=O)C(=O)N2CCCC[C@H]2C(=O)O[C@H]([C@H](C)C[C@@H]2CC[C@@H](OC(=O)C(C)(CO)CO)[C@H](OC)C2)CC(=O)[C@H](C)/C=C(\C)[C@@H](O)[C@@H](OC)C(=O)[C@H](C)C[C@H](C)/C=C/C=C/C=C/1C -7
Cc1ccc(Nc2nccc(N(C)c3ccc4c(C)n(C)nc4c3)n2)cc1S(N)(=O)=O -0.797
COc1cc2c(Nc3ccc(Br)cc3F)ncnc2cc1OCC1CCN(C)CC1 -5

Please look at the items below and tell me %-inhibition, CaMK2α for each one, in order.
1. CNC(=O)c1cc(Oc2ccc(NC(=O)Nc3ccc(Cl)c(C(F)(F)F)c3)c(F)c2)ccn1
2. CC(=O)Nc1cccc(-n2c(=O)n(C3CC3)c(=O)c3c(Nc4ccc(I)cc4F)n(C)c(=O)c(C)c32)c1
3. C[C@@H](Oc1cc(-c2cnn(C3CCNCC3)c2)cnc1N)c1c(Cl)ccc(F)c1Cl

# output
1: -1.57; 2: -1.65; 3: -2.77
